Tested on: CAKI-1 renal
assay-protocol: NCI tumour cell line growth inhibition, 48 h; in the data active means GI50 below about 0.43 µM; inactive means the rest
Pick one and only one: yes (1) = active, no (0) = inactive

Any idea what this test logged for CCc1ccc([OH2+])c(C(=O)[O-])c1.CCc1ccc([OH2+])c(C(=O)[O-])c1.CCc1ccc([OH2+])c(C(=O)[O-])c1.CCc1ccc([OH2+])c(C(=O)[O-])c1.[Cu+2].[Cu+2] ? no (0)

Any idea what this test logged for COc1cc2c(cc1O)CCN[C@@]21CS[C@H]2c3c(OC(C)=O)c(C)c4c(c3C(COC1=O)N1C2C2NC(Cc3cc(C)c(OC)c(O)c32)[C@@H]1O)OCO4 (stereo partly drawn) ? yes (1)

Any idea what this test logged for O=C(O)CN(CCN(CC(=O)O)CC(=O)O)CC(=O)O.[Cu+2].[Na+] ? no (0)

Any idea what this test logged for Cc1c2ccncc2c(C)c2c1[nH]c1ccc(O)cc12 ? no (0)

Any idea what this test logged for COc1cc(OC)c(/C=C/S(=O)(=O)Cc2ccc(OC)c(N)n2)c(OC)c1 ? yes (1)

Any idea what this test logged for O=C(c1ccccc1)c1nn(-c2cccc(Cl)c2)c2nc3nc(-c4ccccc4)cc(=O)n3nc12 ? no (0)

Any idea what this test logged for ClC/C=C/CSc1ncnc2nc[nH]c12 ? no (0)

Any idea what this test logged for CC[C@H](C)[C@H](NC(=O)CN(C)C)C(=O)N(C)[C@H](C[C@@H](OC(C)=O)c1nc(C(=O)NC23C4C5C2C2C3C4C52C(=O)OC)cs1)C(C)C (stereo partly drawn) ? no (0)
